Give measured protein stability index for each item. Keep answers brief.
test system: Saccharomyces cerevisiae; experiment: protein stability index of tFT-peptide fusion in wild type (PSI (0-1 scale)); higher = more stable (slower turnover); details: genetic background: wild type

# ARWRVGLSRGAS with Saccharomyces cerevisiae: protein stability index is 0.669

# RSLRVLAPLYFR with Saccharomyces cerevisiae: protein stability index is 0.352

# ARWRFGLWRGAS with Saccharomyces cerevisiae: protein stability index is 0.581

# VRGAVLGWRLVG with Saccharomyces cerevisiae: protein stability index is 0.146

# AFWRVGLWRGAS with Saccharomyces cerevisiae: protein stability index is 0.496

# AMTLPMCPLLLR with Saccharomyces cerevisiae: protein stability index is 0.223

# LVVYFSCVACIN with Saccharomyces cerevisiae: protein stability index is 0.0194

# RLIQPLPVQELN with Saccharomyces cerevisiae: protein stability index is 0.525

# FSMRWTERYWVN with Saccharomyces cerevisiae: protein stability index is 0.0612

# RSLRFLLPLYFR with Saccharomyces cerevisiae: protein stability index is 0.322

###

tested on: Saccharomyces cerevisiae; test: protein stability index of tFT-peptide fusion (C-terminal peptide) (PSI (0-1 scale)); higher = more stable (slower turnover); details: genetic background: wild type; temperature: 30 C
ENDPOINT NAME: protein stability index
When you answer, write just the number.

// recorded protein stability index for PLPSPPPPFLSL : 0.71

// recorded protein stability index for RREKQKTPAKKT : 0.634

// recorded protein stability index for RSRPPPPPLLFP : 0.701

// recorded protein stability index for PPGSSPPPVLSL : 0.703

// recorded protein stability index for DLSMIPEWICIV : 0.547

// recorded protein stability index for PPPLLPAPGSTI : 0.662

// recorded protein stability index for TVIKMEKKKDGG : 0.669

// recorded protein stability index for LADRTREFSNPA : 0.647

// recorded protein stability index for WLFTSVTVFTFL : 0.296

// recorded protein stability index for VRLRLGLLAGWS : 0.633

###

system: Saccharomyces cerevisiae; assay: protein stability index of tFT-peptide fusion (C-terminal peptide) (PSI (0-1 scale)); higher = more stable (slower turnover); details: genetic background: cdc53-1; temperature: 37 C
Given measured protein stability index, output class 1 if it is greater than or equal to 0.4 and class 0 if not.

Asked: Is protein stability index for SIFFLVPLVFLS at or above 0.4?
Given back: class 1

Asked: Is protein stability index for RVGALLAVTCPA at or above 0.4?
Given back: class 1

Asked: Is protein stability index for CYTGYMYKLLVG at or above 0.4?
Given back: class 1

Asked: Is protein stability index for LLVFWRLWWSLS at or above 0.4?
Given back: class 0

Asked: Is protein stability index for TFRPWPLHILAL at or above 0.4?
Given back: class 0

Asked: Is protein stability index for EWRPYKRNKQSS at or above 0.4?
Given back: class 1

Asked: Is protein stability index for FFFFLVPVHCVI at or above 0.4?
Given back: class 0

Asked: Is protein stability index for FLLSFFGLVFFW at or above 0.4?
Given back: class 1

Asked: Is protein stability index for LYFLLGSLVFVF at or above 0.4?
Given back: class 1

Asked: Is protein stability index for IYFFFFALHFPN at or above 0.4?
Given back: class 1

Asked: Is protein stability index for FLIFFVCLFRWK at or above 0.4?
Given back: class 0

Asked: Is protein stability index for RSWLCFIVFGLF at or above 0.4?
Given back: class 1

Asked: Is protein stability index for YSCFFFLFSFFF at or above 0.4?
Given back: class 1

Asked: Is protein stability index for AFYQSGGLVVVV at or above 0.4?
Given back: class 1

Asked: Is protein stability index for LIRVLRVLRHSS at or above 0.4?
Given back: class 1

Asked: Is protein stability index for GMGRVLVEVLLC at or above 0.4?
Given back: class 1

Asked: Is protein stability index for LLDIYFILLVWF at or above 0.4?
Given back: class 0

Asked: Is protein stability index for IKTKGRYKKQRT at or above 0.4?
Given back: class 1

Asked: Is protein stability index for WLFRASSFNWVI at or above 0.4?
Given back: class 1
